assay: Plasma concentration versus time of Compound I and metabolite Compound III in patients dosed QD or BID with Form B of Compound II plus fulvestrant; format: in vivo, human; settings: human, plasma, oral, 650 mg, Cohort 5, 650 mg QD of Form B, Day 29, 4.0 h; read-out: Compound I Concentration, Median
measured.endpoint: concentration at 4 h
Your reply should be a number followed by the unit it is expressed in.

Query: Recorded concentration at 4 h for CC(C)N1CCN(c2ccc(Nc3ncc4cc5n(c4n3)C3(CCCCC3)CNC5=O)nc2)CC1 [Compound I] , please?
Reply: 33.1 ng/mL

====

assay: Noncompartmental pharmacokinetic parameters (Cmax, Tmax, AUC, Racc) in QD and BID cohorts of Form B; format: in vivo, human; settings: human, plasma, oral, 150 mg, Compound I; 150 mg BID of Form B; Cohort 7; Day 29; read-out: Tmax (Median)
measured.endpoint: Tmax (h)
Quick note: give the figure in h, leave out the unit.

Query: So what does the record say about Tmax for CC(C)N1CCN(c2ccc(Nc3ncc4cc5n(c4n3)C3(CCCCC3)CNC5=O)nc2)CC1 ?
Reply: 4

====

Experiment: Plasma concentration versus time of Compound I and metabolite Compound III in patients dosed QD or BID with Form B of Compound II plus fulvestrant
Format: in vivo, human
Settings: human, plasma, oral, 150 mg, 150 mg BID of Form B, Day 1, 12.0 h, Mean; read-out: Compound I Concentration
Description: Patients were enrolled into 1 of 2 parallel, independently operating, dose-escalation dosing cohorts with Form B of Compound II administered continuously either once daily (QD) or twice daily (BID) with food with fixed-dose fulvestrant (intramuscularly every 14 days for the first three injections and then every 28 days). Pre- or perimenopausal patients also received goserelin for the duration of study treatment. […]
measured.endpoint: concentration at 12 h (ng/mL)
Number only, in ng/mL; omit the unit.

Query: I have this compound here, CC(C)N1CCN(c2ccc(Nc3ncc4cc5n(c4n3)C3(CCCCC3)CNC5=O)nc2)CC1 , and I need its recorded concentration at 12 h.
Reply: 7.73

====

experiment: Plasma concentration versus time of Compound I and metabolite Compound III in patients dosed QD or BID with Form B of Compound II plus fulvestrant; type: in vivo, human; conditions: human, plasma, oral, 200 mg, Cohort 8, 200 mg BID of Form B, Day 29, 10.0 h; read-out: Compound I Concentration, Max
measured.endpoint: concentration at 10 h (ng/mL)
// units = ng/mL; emit number, no label

Query: Please look up its concentration at 10 h: CC(C)N1CCN(c2ccc(Nc3ncc4cc5n(c4n3)C3(CCCCC3)CNC5=O)nc2)CC1
Reply: 38.6

====

assay: Plasma concentration versus time of Compound I and metabolite Compound III in patients dosed QD or BID with Form B of Compound II plus fulvestrant; format: in vivo, human; settings: human, plasma, oral, 650 mg, Cohort 5, 650 mg QD of Form B, Day 29, […]; read-out: Compound I Concentration, Max
measured.endpoint: concentration at 24 h (ng/mL)
Quick note: give the figure in ng/mL, leave out the unit.

Query: Need concentration at 24 h, item CC(C)N1CCN(c2ccc(Nc3ncc4cc5n(c4n3)C3(CCCCC3)CNC5=O)nc2)CC1 [Compound I]
Reply: 27.8

====

test: Plasma concentration versus time of Compound I and metabolite Compound III in patients dosed QD or BID with Form B of Compound II plus fulvestrant; assay type: in vivo, human; conditions: human, plasma, oral, 300 mg, 300 mg QD of Form B, Day 1, 10.0 h, Mean; read-out: Compound I Concentration
measured.endpoint: concentration at 10 h (ng/mL)
Write the value in ng/mL as a bare number.

Query: Look up concentration at 10 h for this compound: CC(C)N1CCN(c2ccc(Nc3ncc4cc5n(c4n3)C3(CCCCC3)CNC5=O)nc2)CC1
Reply: 19.9
